FYI, the data here is from ChEMBL document CHEMBL1926628.

Measurement Notes: Acute toxicity in po dosed Sprague-Dawley rat assessed as maximum tolerated dose
Assay type: organism-based
Conditions: in vivo
Parameter Measured: MTD (mg/kg)
Your answer should be a plain number; it is taken to be in mg/kg.

For reference, reported MTD for O=C(Cn1cnc2cccnc2c1=O)[C@H]1NCC[C@@H]1OCc1ccccc1 stands at 250

For reference, reported MTD for O=C(Cn1cnc2ccncc2c1=O)[C@H]1NCC[C@@H]1O stands at 350

For reference, reported MTD for O=C(Cn1cnc2cccnc2c1=O)[C@H]1NCC[C@@H]1O stands at 450

For reference, reported MTD for O=C(Cn1cnc2cccc(F)c2c1=O)[C@H]1NCC[C@@H]1O stands at 400

For reference, reported MTD for CC(C)O[C@H]1CCN[C@@H]1C(=O)Cn1cnc2cccc(C(F)(F)F)c2c1=O stands at 250

For reference, reported MTD for O=C(Cn1cnc2ccccc2c1=O)[C@H]1NCC[C@@H]1O stands at 100

For reference, reported MTD for O=C(C[C@@H]1NCCC[C@H]1O)Cn1cnc2ccccc2c1=O stands at 35

For reference, reported MTD for CCO[C@H]1CCN[C@@H]1C(=O)Cn1cnc2cccc(F)c2c1=O stands at 250

For reference, reported MTD for O=C(Cn1cnc2cccc(C(F)(F)F)c2c1=O)[C@H]1NCC[C@@H]1O stands at 400

---

Test system: Plasmodium falciparum
Measurement Notes: Antimalarial activity against chloroquine-resistant Plasmodium falciparum TM6 infected in human A positive erythrocytes assessed as inhibition of [G-3H]-hypoxanthine uptake after 24 hrs by liquid scintillation counting
Assay type: functional, organism-based
Conditions: TM6, 24 h
Parameter Measured: pIC50
// returns pIC50 (minus log10 of molar concentration), number only

{"columns": ["Compound", "Value Observed"],
 "data": [
  ["CC(C)O[C@H]1CCN[C@@H]1C(=O)Cn1cnc2cccc(C(F)(F)F)c2c1=O", 9.51],
  ["O=C(Cn1cnc2cccnc2c1=O)[C@@H]1NCC[C@H]1O", 8.70],
  ["CCO[C@H]1CCN[C@@H]1C(=O)Cn1cnc2cccc(F)c2c1=O", 9.77],
  ["O=C(Cn1cnc2cccc(C(F)(F)F)c2c1=O)[C@H]1NCC[C@H]1O", 7.59],
  ["O=C(Cn1cnc2ccncc2c1=O)[C@H]1NCC[C@@H]1O", 8.47]
]}

For reference, reported pIC50 for CCN(CC)Cc1cc(Nc2ccnc3cc(Cl)ccc23)ccc1O stands at 8.12

For reference, reported pIC50 for O=C(Cn1cnc2cccnc2c1=O)[C@H]1NCC[C@H]1O stands at 7.88

---

Test system: Plasmodium berghei
Measurement Notes: Antimalarial activity against blood stage of Plasmodium berghei NK65 infected in po dosed rat assessed as minimum curative dose
Type: functional
I'd appreciate it if you marked entries TRUE when MCD is lower than 6 mg/kg and FALSE when it is not.

Reference set, count: 3
{"columns": ["Compound", "Class Assignment"],
 "data": [
  ["O=C(Cn1cnc2ccncc2c1=O)[C@H]1NCC[C@@H]1O", "FALSE"],
  ["CC(C)O[C@H]1CCN[C@@H]1C(=O)Cn1cnc2cccc(C(F)(F)F)c2c1=O", "TRUE"],
  ["O=C(Cn1cnc2cccc(F)c2c1=O)[C@H]1NCC[C@@H]1O", "FALSE"]
]}

Problem: Please check: MCD for CCN(CC)CCCC(C)Nc1ccnc2cc(Cl)ccc12 (stereo unspecified) , strictly under 6 mg/kg or not?
Solution: FALSE

Problem: Please check: MCD for O=C(Cn1cnc2cccnc2c1=O)[C@H]1NCC[C@@H]1O , strictly under 6 mg/kg or not?
Solution: FALSE

Problem: Please check: MCD for CCO[C@H]1CCN[C@@H]1C(=O)Cn1cnc2cccc(F)c2c1=O , strictly under 6 mg/kg or not?
Solution: TRUE

Problem: Please check: MCD for O=C(C[C@@H]1NCCC[C@H]1O)Cn1cnc2ccccc2c1=O , strictly under 6 mg/kg or not?
Solution: FALSE

Problem: Please check: MCD for O=C(Cn1cnc2cccc(C(F)(F)F)c2c1=O)[C@H]1NCC[C@@H]1O , strictly under 6 mg/kg or not?
Solution: FALSE

Problem: Please check: MCD for O=C(Cn1cnc2ccccc2c1=O)[C@H]1NCC[C@@H]1O , strictly under 6 mg/kg or not?
Solution: FALSE

Problem: Please check: MCD for OC(c1cc(C(F)(F)F)nc2c(C(F)(F)F)cccc12)C1CCCCN1 (stereo unspecified) , strictly under 6 mg/kg or not?
Solution: FALSE

Problem: Please check: MCD for O=C(Cn1cnc2cccnc2c1=O)[C@H]1NCC[C@@H]1OCc1ccccc1 , strictly under 6 mg/kg or not?
Solution: TRUE

---

Test system: Plasmodium falciparum
Measurement Notes: Antimalarial activity against chloroquine-resistant Plasmodium falciparum K1 infected in human A positive erythrocytes assessed as inhibition of [G-3H]-hypoxanthine uptake after 24 hrs by liquid scintillation counting
Format: functional, organism-based
Conditions: K1, 24 h
Parameter Measured: pIC50
// returns pIC50 (minus log10 of molar concentration), number only

{"columns": ["Compound Smiles", "Value Observed"],
 "data": [
  ["O=C(Cn1cnc2cccnc2c1=O)[C@@H]1NCC[C@H]1O", 8.48],
  ["CC(C)O[C@H]1CCN[C@@H]1C(=O)Cn1cnc2cccc(C(F)(F)F)c2c1=O", 9.21],
  ["O=C(Cn1cnc2cccc(C(F)(F)F)c2c1=O)[C@H]1NCC[C@@H]1O", 8.33],
  ["O=C(Cn1cnc2cccnc2c1=O)[C@H]1NCC[C@H]1O", 7.70],
  ["O=C(C[C@@H]1NCCC[C@H]1O)Cn1cnc2ccccc2c1=O", 8.70]
]}

For reference, reported pIC50 for O=C(Cn1cnc2cccnc2c1=O)[C@H]1NCC[C@@H]1O stands at 8.51

For reference, reported pIC50 for O=C(Cn1cnc2cccc(C(F)(F)F)c2c1=O)[C@H]1NCC[C@H]1O stands at 7.62

For reference, reported pIC50 for O=C(Cn1cnc2cccc(F)c2c1=O)[C@H]1NCC[C@@H]1O stands at 8.23

---

System: Plasmodium falciparum
Measurement Notes: Antimalarial activity against chloroquine-resistant Plasmodium falciparum TM6 infected in human A positive erythrocytes assessed as inhibition of [G-3H]-hypoxanthine uptake after 24 hrs by liquid scintillation counting
Format: functional, organism-based
Conditions: TM6, 24 h
Below, each of the compounds is paired with its reported IC50 value.
Give the number first and the unit second.

Below, 2 compounds whose answers are already recorded.
{"columns": ["Compound Smiles", "Tested Target", "Value Observed"],
 "data": [
  ["O=C(Cn1cnc2cccc(C(F)(F)F)c2c1=O)[C@@H]1NCC[C@H]1O", "Plasmodium falciparum", "2.7 nM"],
  ["O=C(Cn1cnc2cccc(C(F)(F)F)c2c1=O)[C@H]1NCC[C@@H]1O", "Plasmodium falciparum", "2.5 nM"]
]}

As a next step, examine the compound that follows.
For reference, reported IC50 for O=C(Cn1cnc2cccnc2c1=O)[C@H]1NCC[C@@H]1OCc1ccccc1 stands at 0.08 nM

---

Below, each of the compounds is paired with its reported ED50 value.
Tested on: Plasmodium berghei
Measurement Notes: Antimalarial activity against blood stage of Plasmodium berghei NK65 infected in po dosed rat assessed as inhibition of parasite growth
Assay type: functional
Your answer should be a plain number; it is taken to be in mg/kg.

{"columns": ["Compound", "Readout Units", "ED50"],
 "data": [
  ["CC(C)O[C@H]1CCN[C@@H]1C(=O)Cn1cnc2cccc(C(F)(F)F)c2c1=O", "mg/kg", 0.23],
  ["O=C(Cn1cnc2cccnc2c1=O)[C@H]1NCC[C@@H]1O", "mg/kg", 1.2],
  ["O=C(Cn1cnc2cccc(C(F)(F)F)c2c1=O)[C@H]1NCC[C@@H]1O", "mg/kg", 0.95],
  ["OC(c1cc(C(F)(F)F)nc2c(C(F)(F)F)cccc12)C1CCCCN1 (stereo unspecified)", "mg/kg", 1.1],
  ["O=C(Cn1cnc2cccnc2c1=O)[C@H]1NCC[C@@H]1OCc1ccccc1", "mg/kg", 0.19]
]}

For reference, reported ED50 for O=C(Cn1cnc2ccccc2c1=O)[C@H]1NCC[C@@H]1O stands at 1.7

For reference, reported ED50 for CCN(CC)CCCC(C)Nc1ccnc2cc(Cl)ccc12 (stereo unspecified) stands at 4.5

For reference, reported ED50 for O=C(C[C@@H]1NCCC[C@H]1O)Cn1cnc2ccccc2c1=O stands at 2.3

For reference, reported ED50 for O=C(Cn1cnc2ccncc2c1=O)[C@H]1NCC[C@@H]1O stands at 1

For reference, reported ED50 for CCO[C@H]1CCN[C@@H]1C(=O)Cn1cnc2cccc(F)c2c1=O stands at 0.31

For reference, reported ED50 for O=C(Cn1cnc2cccc(F)c2c1=O)[C@H]1NCC[C@@H]1O stands at 1.1
